# ASSAY SYSTEM: NP of A/California/07/2009(H1N1/H1S) (influenza A virus, NYMC X-181 derived …)
# Sequence (P03466 whole entry): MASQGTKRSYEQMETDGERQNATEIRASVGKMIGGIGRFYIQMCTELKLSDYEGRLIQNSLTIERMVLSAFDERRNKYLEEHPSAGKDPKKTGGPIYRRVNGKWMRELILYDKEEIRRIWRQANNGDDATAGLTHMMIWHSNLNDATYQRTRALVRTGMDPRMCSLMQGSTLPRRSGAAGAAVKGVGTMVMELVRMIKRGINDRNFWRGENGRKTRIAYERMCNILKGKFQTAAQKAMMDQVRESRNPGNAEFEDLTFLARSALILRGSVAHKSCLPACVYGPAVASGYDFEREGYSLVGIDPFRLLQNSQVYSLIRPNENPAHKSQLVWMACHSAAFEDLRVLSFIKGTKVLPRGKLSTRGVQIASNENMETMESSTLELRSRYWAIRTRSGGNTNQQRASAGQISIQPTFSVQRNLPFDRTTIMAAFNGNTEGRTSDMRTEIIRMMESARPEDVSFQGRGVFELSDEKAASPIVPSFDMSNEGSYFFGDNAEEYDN
# ASSAY TEXT: sandwich ELISA, capture IgG; NP of lysed virus titrated; HRP-NP17 detection
MEASUREMENT TYPE: pEC50
Value format note: pEC50 is -log10 of concentration (mol/L); just state the number.

Find the measured pEC50 of NP16 (antibody, V domains shown) VH: EVQLVESGGGLVQPGGSLRLSCAASGFTIGNSGIHWVRQAPGKGLEWVAWIGPYWGFTSYADSVKGRFTISADTSKNTAYLQMNSLRAEDTAVYYCARFGNHWHLFMDYWGQGTLVTVSS VL: DIQMTQSPSSLSASVGDRVTITCRASQDVGSYVAWYQQKPGKAPKLLISWTTGLYSGVPSRFSGSGSGTDFTLTISSLQPEDFATYYCQQYFSYPVTFGQGTKVEIKR and report it. 9.04

Find the measured pEC50 of NP10 (antibody, V domains shown) VH: EVQLVESGGGLVQPGGSLRLSCAASGFTIDNGSIHWVRQAPGKGLEWVAWIWPFGGSTSYADSVKGRFTISADTSKNTAYLQMNSLRAEDTAVYYCARSWSSGYDYWGQGTLVTVSS VL: DIQMTQSPSSLSASVGDRVTITCRASQDVSWSVAWYQQKPGKAPKLLISGSTWLYSGVPSRFSGSGSGTDFTLTISSLQPEDFATYYCQQYSNSPITFGQGTKVEIKR and report it. 9.10

Find the measured pEC50 of NP15 (antibody, V domains shown) VH: EVQLVESGGGLVQPGGSLRLSCAASGFTISNWYIHWVRQAPGKGLEWVAGIGPYGGSTYYADSVKGRFTISADTSKNTAYLQMNSLRAEDTAVYYCARFHWDHLHGMDYWGQGTLVTVSS VL: DIQMTQSPSSLSASVGDRVTITCRASQDVDNNVAWYQQKPGKAPKLLISYSTGLYSGVPSRFSGSGSGTDFTLTISSLQPEDFATYYCQQYWNYPITFGQGTKVEIKR and report it. 9.09

Find the measured pEC50 of NP4 (antibody, V domains shown) VH: EVQLVESGGGLVQPGGSLRLSCAASGFTISNSSIHWVRQAPGKGLEWVAGIGPSGGYTFYADSVKGRFTISADTSKNTAYLQMNSLRAEDTAVYYCARFHSHNSYYSYSHYGYMDYWGQGTLVTVSS VL: DIQMTQSPSSLSASVGDRVTITCRASQDVGWGVAWYQQKPGKAPKLLISGPSSLYSGVPSRFSGSGSGTDFTLTISSLQPEDFATYYCQQYFNYPITFGQGTKVEIKR and report it. 9.06
